assay: Cytotoxicity against vincristine-resistant human VJ-300 cells; assay type: functional, cell-based
MEASURED ATTRIBUTE: pIC50
Scale for pIC50: -log10 of concentration given in mol/L; no unit attached.

What does the record list as pIC50 for CC[C@]12C=CCN3CC[C@]4(C(=C(C(=O)OC)C1)Nc1cc(OC)c(OC(C)=O)cc14)[C@@H]32 [JERANTININE A ACETATE] ?
6.08

* * *

For each record, write down the corresponding pIC50.
experiment: Cytotoxicity against human MCF-10A cells; format: toxicity, cell-based
Scale for pIC50: -log10 of concentration given in mol/L; no unit attached.

What does the record list as pIC50 for CC[C@]12C=CCN3CC[C@]4(C(=C(C(=O)OC)C1)Nc1cc(OC)c(O)cc14)[C@@H]32 [JERANTININE A] ?
6.02

What does the record list as pIC50 for CC[C@]12C=CCN3CC[C@]4(C(=C(C(=O)OC)C1)Nc1cc(OC)c(OC(C)=O)cc14)[C@@H]32 [JERANTININE A ACETATE] ?
4.73

Taken from ChEMBL document CHEMBL5252672.
